Property: TGI; scope: individual compounds
# Test system: HCT-116 colon
# EXPERIMENT DESCRIPTION: NCI tumour cell line growth inhibition, 48 h

SMILES NOTATION: O=C(Nc1cccc(-n2cc(-c3ccncc3)c(-c3ccc(Cl)c(O)c3)n2)c1)c1ccc(N2CCOCC2)c(C(F)(F)F)c1
TGI: > 50 µM
--
SMILES NOTATION: Cc1cc(NCCCCCCNc2cc(C)nc3cc(N(C)C)ccc23)c2ccc(N(C)C)cc2n1
TGI: > 100 µM
--
SMILES NOTATION: COc1cc2c(ccc3c4cc(OC)c(OC)cc4c[n+](C)c23)cc1O
TGI: > 60.3 µM
--
SMILES NOTATION: CCOC(=O)c1nc2ccccc2nc1NCc1cc(OC)c(OC)c(OC)c1
TGI: > 100 µM

###

# System: A498 renal
# EXPERIMENT DESCRIPTION: NCI tumour cell line growth inhibition, 48 h
// reported TGI for each item listed

COMPOUND: O=C(c1cccs1)N(C(=S)OC12CC3CC(CC(C3)C1)C2)c1ccccc1
SYSTEM NAME: A498 renal
TGI: > 100 µM
--
COMPOUND: N#CCCN(CCCN(CCCN(C(=O)Nc1ccccc1)c1ccccc1)C(=O)Nc1ccccc1)C(=O)Nc1ccccc1
SYSTEM NAME: A498 renal
TGI: > 100 µM
--
COMPOUND: Clc1ccc(N=Nc2nc3ccccc3nc2N=Nc2ccc(Cl)cc2Cl)c(Cl)c1
SYSTEM NAME: A498 renal
TGI: > 100 µM
--
COMPOUND: C=CCNC(=O)N(CCCC(NC(C)=O)C(=O)NCc1ccccc1)Cc1ccccc1 (stereo not given)
SYSTEM NAME: A498 renal
TGI: > 100 µM
--
COMPOUND: C[C@]12CCC(=O)C=C1CC[C@@H]1C2CC[C@]2(C)Nc3c(cnn3-c3ccccc3)CC12 (stereo not given in full)
SYSTEM NAME: A498 renal
TGI: > 100 µM
--
COMPOUND: O=C1Nc2nc3ccccc3n2N=C2CCCC12 (stereo not given)
SYSTEM NAME: A498 renal
TGI: > 100 µM
--
COMPOUND: COc1cccc(-n2nc(C)c3c(N/N=C(\C)c4ccncc4)ncnc32)c1
SYSTEM NAME: A498 renal
TGI: > 25 µM
--
COMPOUND: Cc1ccc(N2C(=O)CS/C2=C(\C#N)c2nc3ccccc3[nH]2)cc1
SYSTEM NAME: A498 renal
TGI: > 100 µM
--
COMPOUND: CC1(N)CCN(c2cccnc2NC(=O)c2nc(-c3ncccc3C(F)(F)F)cnc2N)CC1
SYSTEM NAME: A498 renal
TGI: > 100 µM
--
COMPOUND: Clc1cc(Cl)cc(C=NC23CC4CC(CC(C4)C2)C3)c1
SYSTEM NAME: A498 renal
TGI: > 10 µM
--
COMPOUND: O=C(OCN1C(=O)C2C3C=CC(C2C1=O)C1C2C(=O)N(COC(=O)C4CCCN4)C(=O)C2C31)C1CCCN1 (stereo not given)
SYSTEM NAME: A498 renal
TGI: > 100 µM
--
COMPOUND: CC(=O)OCC1OC(c2nc3ccccc3s2)=CC(OC(C)=O)C1OC(C)=O (stereo not given)
SYSTEM NAME: A498 renal
TGI: > 100 µM
--
COMPOUND: COc1cc(-c2cc(-c3ccccc3)nc(-c3c(OC)ccc4c(C)cc(=O)oc34)c2)cc(OC)c1OC
SYSTEM NAME: A498 renal
TGI: > 100 µM
--
COMPOUND: N#Cc1c(-c2ccc([N+](=O)[O-])cc2)c(C#N)c(=O)n(NS(=O)(=O)c2ccccc2)c1-c1ccccc1
SYSTEM NAME: A498 renal
TGI: > 100 µM
--
COMPOUND: CN(C)C(=S)/N=c1\ssc(=S)n1Cc1cccnc1
SYSTEM NAME: A498 renal
TGI: > 100 µM
--
COMPOUND: COC(=O)C1CN=CN1CCc1ccccc1 (stereo not given)
SYSTEM NAME: A498 renal
TGI: > 100 µM
--
COMPOUND: O=C(CC(=O)C1=CNc2ccccc2S1)C(=O)Nc1ccc(Cl)cc1
SYSTEM NAME: A498 renal
TGI: > 50 µM
--
COMPOUND: Cc1cc(NCCCCCCNc2cc(C)nc3cc(N(C)C)ccc23)c2ccc(N(C)C)cc2n1
SYSTEM NAME: A498 renal
TGI: > 100 µM
--
COMPOUND: C1COCCN1.C1COCCN1.NC1CCCCC1N.[Cl-].[Pt+2] (stereo not given)
SYSTEM NAME: A498 renal
TGI: > 100 µM
--
COMPOUND: CN(C)C(=S)/N=c1\ssc(=S)n1Cc1ccccc1
SYSTEM NAME: A498 renal
TGI: > 69.5 µM
